Data origin, for the record: paper PMC5980995

Give Ki for every item shown.
- test.target: UniProt:P14618
Numeric answer only, unit µM assumed.

Query: Ki; subject: "N[C@@H](Cc1c[nH]c2ccccc12)C(=O)O"
222

Queued: "N[C@@H](Cc1ccccc1)C(=O)O"
205

* * *

- test.target: M2PYK (Homo sapiens)
result.type: IC50
# do not omit the unit; it follows the number

Query: IC50; subject: "N[C@@H](Cc1c[nH]c2ccccc12)C(=O)O"
445 µM

* * *

- test.target: M2PYK (Homo sapiens, UniProt P14618)
- Construct: and N-terminal domain (blue, residues 13–43. Residues 1–12, as well as additional residues from the His6-tagged construct); made in house; host or cells: Escherichia coli BL21(DE3), pET28a
- Sequence (P14618 whole entry, the tested form may be a part): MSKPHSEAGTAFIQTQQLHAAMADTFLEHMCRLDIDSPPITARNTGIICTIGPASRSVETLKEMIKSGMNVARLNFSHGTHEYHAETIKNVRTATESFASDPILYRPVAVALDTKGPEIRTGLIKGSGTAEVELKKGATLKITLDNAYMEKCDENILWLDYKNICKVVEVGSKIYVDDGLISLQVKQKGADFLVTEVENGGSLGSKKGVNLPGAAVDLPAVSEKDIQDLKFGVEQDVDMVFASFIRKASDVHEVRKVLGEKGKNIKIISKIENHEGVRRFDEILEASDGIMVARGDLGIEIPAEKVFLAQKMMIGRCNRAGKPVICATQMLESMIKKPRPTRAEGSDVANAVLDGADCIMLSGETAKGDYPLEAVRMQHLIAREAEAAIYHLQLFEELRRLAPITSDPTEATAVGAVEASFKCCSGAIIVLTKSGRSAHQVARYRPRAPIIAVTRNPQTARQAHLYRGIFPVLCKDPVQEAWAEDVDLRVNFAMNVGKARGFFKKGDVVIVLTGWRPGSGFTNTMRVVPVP
- assay.method.text: X-ray co-crystal structures of M2PYK with amino acids
- experimental.parameters: wild-type M2PYK co-crystallised with the amino acid
result.type: Conformation of M2PYK tetramer in co-crystal structure

>>> assay_value("N[C@@H](Cc1ccccc1)C(=O)O [phenylalanine, L-phenylalanine]")
"T-state"
>>> assay_value("C[C@H](N)C(=O)O [alanine, L-alanine]")
"T-state"
>>> assay_value("N[C@@H](Cc1c[nH]c2ccccc12)C(=O)O [tryptophan, L-tryptophan]")
"T-state"
